- ASSAY TEXT: One-photon absorption spectra of dyes (λmax abs, logε)
- Assay type: physicochemical
- COND: Lipid vesicles

>  <COMPOUND>
CCCCN(CCCC)c1ccc2cc(/C=C/c3cc[n+](CCC[N+](CC)(CC)CC)cc3F)ccc2c1F

>  <logε>
4.3

$$$$
>  <COMPOUND>
CCCCN(CCCC)c1ccc2cc(/C=C(\F)c3cc[n+](CCC[N+](CC)(CC)CC)cc3F)ccc2c1F

>  <logε>
4.2

$$$$
>  <COMPOUND>
CCCCN(CCCC)c1ccc2cc(/C=C/c3c(F)c[n+](CCC[N+](CC)(CC)CC)c4ccccc34)ccc2c1 [PY4221]

>  <logε>
4.2

$$$$
>  <COMPOUND>
CCCCN(CCCC)c1ccc2cc(/C=C/c3cc[n+](CCC[N+](CC)(CC)CC)cc3)ccc2c1F

>  <logε>
4.3

$$$$
>  <COMPOUND>
CCCCN(CCCC)c1ccc2cc(/C=C(\F)c3cc[n+](CCC[N+](CC)(CC)CC)cc3)ccc2c1

>  <logε>
4.4

$$$$
>  <COMPOUND>
CCCCN(CCCC)c1ccc2cc(/C=C/c3c(F)c[n+](CCC[N+](CC)(CC)CC)c4ccccc34)ccc2c1 [PY3304]

>  <logε>
4.2

$$$$
>  <COMPOUND>
CCCCN(CCCC)c1ccc2cc(/C=C/c3cc[n+](CCC[N+](CC)(CC)CC)cc3F)ccc2c1

>  <logε>
4.3

$$$$
>  <COMPOUND>
CCCCN(CCCC)c1ccc2cc(/C=C/c3c(F)c[n+](CCC[N+](CC)(CC)CC)cc3F)ccc2c1

>  <logε>
4.3

$$$$
>  <COMPOUND>
CCCCN(CCCC)c1ccc2cc(/C=C(\F)c3cc[n+](CCC[N+](CC)(CC)CC)cc3)ccc2c1F

>  <logε>
4.3

$$$$
>  <COMPOUND>
CCCCN(CCCC)c1ccc2cc(/C=C(\F)c3cc[n+](CCC[N+](CC)(CC)CC)cc3F)ccc2c1

>  <logε>
4.5

$$$$
>  <COMPOUND>
CCCCN(CCCC)c1ccc2cc(/C=C(\F)c3cc[n+](CCC[N+](CC)(CC)CC)cc3)ccc2c1C(F)(F)F

>  <logε>
4.4

$$$$
>  <COMPOUND>
CCCCN(CCCC)c1ccc2cc(/C=C/c3cc[n+](CCC[N+](CC)(CC)CC)cc3)ccc2c1C(F)(F)F

>  <logε>
4.5

$$$$

---

- ASSAY TEXT: One-photon absorption spectra of dyes (λmax abs, logε)
- Assay type: physicochemical
- COND: Ethanol

>  <MOLECULE>
CCCCN(CCCC)c1ccc2cc(/C=C(\F)c3cc[n+](CCC[N+](CC)(CC)CC)cc3)ccc2c1

>  <logε>
4.5

$$$$
>  <MOLECULE>
CCCCN(CCCC)c1ccc2cc(/C=C(\F)c3cc[n+](CCC[N+](CC)(CC)CC)cc3)ccc2c1F

>  <logε>
4.4

$$$$
>  <MOLECULE>
CCCCN(CCCC)c1ccc2cc(/C=C(\F)c3cc[n+](CCC[N+](CC)(CC)CC)cc3)ccc2c1C(F)(F)F

>  <logε>
4.4

$$$$
>  <MOLECULE>
CCCCN(CCCC)c1ccc2cc(/C=C(\F)c3cc[n+](CCC[N+](CC)(CC)CC)cc3F)ccc2c1F

>  <logε>
4.3

$$$$
>  <MOLECULE>
CCCCN(CCCC)c1ccc2cc(/C=C(\F)c3cc[n+](CCC[N+](CC)(CC)CC)cc3F)ccc2c1

>  <logε>
4.6

$$$$
>  <MOLECULE>
CCCCN(CCCC)c1ccc2cc(/C=C/c3c(F)c[n+](CCC[N+](CC)(CC)CC)c4ccccc34)ccc2c1 [PY3304]

>  <logε>
4.4

$$$$
>  <MOLECULE>
CCCCN(CCCC)c1ccc2cc(/C=C/c3cc[n+](CCC[N+](CC)(CC)CC)cc3F)ccc2c1

>  <logε>
4.4

$$$$
>  <MOLECULE>
CCCCN(CCCC)c1ccc2cc(/C=C/c3cc[n+](CCC[N+](CC)(CC)CC)cc3F)ccc2c1F

>  <logε>
4.3

$$$$
>  <MOLECULE>
CCCCN(CCCC)c1ccc2cc(/C=C/c3c(F)c[n+](CCC[N+](CC)(CC)CC)cc3F)ccc2c1

>  <logε>
4.6

$$$$
>  <MOLECULE>
CCCCN(CCCC)c1ccc2cc(/C=C/c3cc[n+](CCC[N+](CC)(CC)CC)cc3)ccc2c1C(F)(F)F

>  <logε>
4.6

$$$$
>  <MOLECULE>
CCCCN(CCCC)c1ccc2cc(/C=C/c3c(F)c[n+](CCC[N+](CC)(CC)CC)c4ccccc34)ccc2c1 [PY4221]

>  <logε>
4.4

$$$$
>  <MOLECULE>
CCCCN(CCCC)c1ccc2cc(/C=C/c3cc[n+](CCC[N+](CC)(CC)CC)cc3)ccc2c1F

>  <logε>
4.4

$$$$

---

Listed below: logε values for each entry.
- ASSAY TEXT: One-photon absorption spectra of dyes (λmax abs, logε)
- Type: physicochemical
- COND: PBS buffer
EXPERIMENTAL ENDPOINT: logε

>  <COMPOUND>
CCCCN(CCCC)c1ccc2cc(/C=C/c3cc[n+](CCC[N+](CC)(CC)CC)cc3F)ccc2c1F

>  <EXPERIMENTAL RESULT>
4.1

$$$$
>  <COMPOUND>
CCCCN(CCCC)c1ccc2cc(/C=C/c3cc[n+](CCC[N+](CC)(CC)CC)cc3F)ccc2c1

>  <EXPERIMENTAL RESULT>
4.2

$$$$
>  <COMPOUND>
CCCCN(CCCC)c1ccc2cc(/C=C(\F)c3cc[n+](CCC[N+](CC)(CC)CC)cc3)ccc2c1

>  <EXPERIMENTAL RESULT>
4.2

$$$$
>  <COMPOUND>
CCCCN(CCCC)c1ccc2cc(/C=C(\F)c3cc[n+](CCC[N+](CC)(CC)CC)cc3F)ccc2c1F

>  <EXPERIMENTAL RESULT>
4.0

$$$$
>  <COMPOUND>
CCCCN(CCCC)c1ccc2cc(/C=C/c3c(F)c[n+](CCC[N+](CC)(CC)CC)c4ccccc34)ccc2c1 [PY4221]

>  <EXPERIMENTAL RESULT>
4.1

$$$$
>  <COMPOUND>
CCCCN(CCCC)c1ccc2cc(/C=C(\F)c3cc[n+](CCC[N+](CC)(CC)CC)cc3)ccc2c1F

>  <EXPERIMENTAL RESULT>
4.0

$$$$
>  <COMPOUND>
CCCCN(CCCC)c1ccc2cc(/C=C(\F)c3cc[n+](CCC[N+](CC)(CC)CC)cc3)ccc2c1C(F)(F)F

>  <EXPERIMENTAL RESULT>
4.2

$$$$
>  <COMPOUND>
CCCCN(CCCC)c1ccc2cc(/C=C/c3c(F)c[n+](CCC[N+](CC)(CC)CC)c4ccccc34)ccc2c1 [PY3304]

>  <EXPERIMENTAL RESULT>
4.0

$$$$
>  <COMPOUND>
CCCCN(CCCC)c1ccc2cc(/C=C/c3cc[n+](CCC[N+](CC)(CC)CC)cc3)ccc2c1F

>  <EXPERIMENTAL RESULT>
4.2

$$$$
>  <COMPOUND>
CCCCN(CCCC)c1ccc2cc(/C=C/c3cc[n+](CCC[N+](CC)(CC)CC)cc3)ccc2c1C(F)(F)F

>  <EXPERIMENTAL RESULT>
4.3

$$$$
>  <COMPOUND>
CCCCN(CCCC)c1ccc2cc(/C=C(\F)c3cc[n+](CCC[N+](CC)(CC)CC)cc3F)ccc2c1

>  <EXPERIMENTAL RESULT>
4.4

$$$$
>  <COMPOUND>
CCCCN(CCCC)c1ccc2cc(/C=C/c3c(F)c[n+](CCC[N+](CC)(CC)CC)cc3F)ccc2c1

>  <EXPERIMENTAL RESULT>
4.2

$$$$

---

- ASSAY TEXT: One-photon absorption spectra of dyes (λmax abs, logε)
- Format: physicochemical
- COND: Ethanol
- Description: Similar methods were used to prepare additional dyes.

>  <STRUCTURE SMILES>
CCCCN(CCCC)c1ccc2cc(/C=C(\F)c3cc[n+](CCC[N+](CC)(CC)CC)cc3F)ccc2c1F

>  <READOUT UNIT>
nm

>  <λmax abs>
510

$$$$
>  <STRUCTURE SMILES>
CCCCN(CCCC)c1ccc2cc(/C=C/c3cc[n+](CCC[N+](CC)(CC)CC)cc3F)ccc2c1F

>  <READOUT UNIT>
nm

>  <λmax abs>
509

$$$$
>  <STRUCTURE SMILES>
CCCCN(CCCC)c1ccc2cc(/C=C(\F)c3cc[n+](CCC[N+](CC)(CC)CC)cc3)ccc2c1

>  <READOUT UNIT>
nm

>  <λmax abs>
539

$$$$
>  <STRUCTURE SMILES>
CCCCN(CCCC)c1ccc2cc(/C=C/c3cc[n+](CCC[N+](CC)(CC)CC)cc3)ccc2c1C(F)(F)F

>  <READOUT UNIT>
nm

>  <λmax abs>
449

$$$$
>  <STRUCTURE SMILES>
CCCCN(CCCC)c1ccc2cc(/C=C/c3cc[n+](CCC[N+](CC)(CC)CC)cc3F)ccc2c1

>  <READOUT UNIT>
nm

>  <λmax abs>
545

$$$$
